inhibition at 48 h, 10 µM values, listed per item
Assay Method Text: Antiproliferative activity against African green monkey COS-7 cells assessed as inhibition of cell growth at 10 uM incubated for 48 hrs by SRB assay relative to control
Assay type: toxicity, cell-based
Conditions Used: chlorocebus aethiops, read-out: Activity
Write down the numeric answer in % and omit the unit.

Completed entries (count: 2):
>>> value_measured("CCCCCCCCCCCCNC(=O)C(c1ccco1)N1CCCCN(CC(=O)NC(C)(C)C)C(=O)c2cccc(c2)-c2cccc(c2)C1=O (racemic)")
35.8
>>> value_measured("CCCCCCCCCCCCNC(=O)C(c1cc(OC)c(OC)c(OC)c1)N1CCCCN(CC(=O)NC(C)(C)C)C(=O)c2cccc(c2)-c2cccc(c2)C1=O (racemic)")
25.6

Exercise: Endpoint output: inhibition at 48 h, 10 µM of CCCCCCCCCCCNC(=O)CN1CCCCN(CC(=O)NC(C)(C)C)C(=O)c2cccc(c2)-c2cccc(c2)C1=O . Value?
Solution: 28.1

Exercise: Endpoint output: inhibition at 48 h, 10 µM of CCCCCCCCCCNC(=O)C(c1ccc(F)cc1)N1CCCCN(CC(=O)NC(C)(C)C)C(=O)c2cccc(c2)-c2cccc(c2)C1=O (racemic) . Value?
Solution: 24.3

Exercise: Endpoint output: inhibition at 48 h, 10 µM of CCCCCCCCCCCCNC(=O)C(c1ccc(C)cc1)N1CCCCN(CC(=O)NC(C)(C)C)C(=O)c2cccc(c2)-c2cccc(c2)C1=O (racemic) . Value?
Solution: 34.8

Exercise: Endpoint output: inhibition at 48 h, 10 µM of CCCCCCCCCCNC(=O)CN1CCCCN(CC(=O)NC(C)(C)C)C(=O)c2cccc(c2)-c2cccc(c2)C1=O . Value?
Solution: 17.8

Exercise: Endpoint output: inhibition at 48 h, 10 µM of CCCCCCCCCCNC(=O)C(c1ccoc1)N1CCCCN(CC(=O)NC(C)(C)C)C(=O)c2cccc(c2)-c2cccc(c2)C1=O (racemic) . Value?
Solution: 22.8

====

Assay Method Text: Antiproliferative activity against African green monkey COS-7 cells assessed as inhibition of cell growth at 10 uM incubated for 48 hrs by SRB assay relative to control
Format: toxicity, cell-based
Conditions Used: chlorocebus aethiops, read-out: Activity
inhibition at 48 h, 10 µM values, listed per item
Write down the numeric answer in % and omit the unit.

Completed entries (count: 2):
>>> value_measured("CCCCCCCCCCNC(=O)C(c1ccco1)N1CCCCN(CC(=O)NC(C)(C)C)C(=O)c2cccc(c2)-c2cccc(c2)C1=O (racemic)")
21.6
>>> value_measured("CCCCCCCNC(=O)CN1CCCCN(CC(=O)NC(C)(C)C)C(=O)c2cccc(c2)-c2cccc(c2)C1=O")
7.6

Let's switch to this compound now.
Exercise: Endpoint output: inhibition at 48 h, 10 µM of CCCCCCCCCCCCNC(=O)C(c1ccc(O)cc1OC)N1CCCCN(CC(=O)NC(C)(C)C)C(=O)c2cccc(c2)-c2cccc(c2)C1=O (racemic) . Value?
Solution: 26.1

====

Assay Method Text: Antiproliferative activity against African green monkey COS-7 cells assessed as inhibition of cell growth at 10 uM incubated for 48 hrs by SRB assay relative to control
Format: toxicity, cell-based
Conditions Used: chlorocebus aethiops, read-out: Activity
Tick 1.0 if inhibition at 48 h, 10 µM is 30% or greater. Tick 0.0 if inhibition at 48 h, 10 µM is less than 30%.

Past entries and their recorded results:
>>> label_class("CCCCCCCCCCCCNC(=O)C(c1ccc(Cl)cc1)N1CCCCN(CC(=O)NC(C)(C)C)C(=O)c2cccc(c2)-c2cccc(c2)C1=O (racemic)")
1.0
>>> label_class("CCCCCCCCCNC(=O)CN1CCCCN(CC(=O)NC(C)(C)C)C(=O)c2cccc(c2)-c2cccc(c2)C1=O")
1.0

Exercise: Say whether CCCCCCCCCCCCNC(=O)C(c1ccc(SC)cc1)N1CCCCN(CC(=O)NC(C)(C)C)C(=O)c2cccc(c2)-c2cccc(c2)C1=O (racemic) shows inhibition at 48 h, 10 µM of 30% or more.
Solution: 1.0

Exercise: Say whether CCCCCCCCCCCCNC(=O)C(c1ccc(C(F)(F)F)cc1)N1CCCCN(CC(=O)NC(C)(C)C)C(=O)c2cccc(c2)-c2cccc(c2)C1=O (racemic) shows inhibition at 48 h, 10 µM of 30% or more.
Solution: 1.0

Exercise: Say whether CCCCCCCCCCCCNC(=O)C(c1ccc(OC)cc1)N1CCCCN(CC(=O)NC(C)(C)C)C(=O)c2cccc(c2)-c2cccc(c2)C1=O (racemic) shows inhibition at 48 h, 10 µM of 30% or more.
Solution: 1.0

Exercise: Say whether CCCCCCCCCCCCNC(=O)C(c1cc(C)ccc1F)N1CCCCN(CC(=O)NC(C)(C)C)C(=O)c2cccc(c2)-c2cccc(c2)C1=O (racemic) shows inhibition at 48 h, 10 µM of 30% or more.
Solution: 0.0

Exercise: Say whether CCCCCCCCCCNC(=O)CN1CCCCN(CC(=O)NC(C)(C)C)C(=O)c2cccc(c2)-c2ccc(O)c(c2)C1=O shows inhibition at 48 h, 10 µM of 30% or more.
Solution: 1.0

Exercise: Say whether CCCCCCCCCCCCNC(=O)C(c1ccc(OC)cc1C)N1CCCCN(CC(=O)NC(C)(C)C)C(=O)c2cccc(c2)-c2cccc(c2)C1=O (racemic) shows inhibition at 48 h, 10 µM of 30% or more.
Solution: 1.0

Exercise: Say whether CCCCCCCCCCCCNC(=O)C(c1ccc(F)cc1)N1CCCCN(CC(=O)NC(C)(C)C)C(=O)c2cccc(c2)-c2cccc(c2)C1=O (racemic) shows inhibition at 48 h, 10 µM of 30% or more.
Solution: 1.0

Exercise: Say whether CCCCCCCCNC(=O)CN1CCCCN(CC(=O)NC(C)(C)C)C(=O)c2cccc(c2)-c2cccc(c2)C1=O shows inhibition at 48 h, 10 µM of 30% or more.
Solution: 0.0

Exercise: Say whether CCCCCCCCCCCCNC(=O)C(c1ccc([N+](=O)[O-])cc1)N1CCCCN(CC(=O)NC(C)(C)C)C(=O)c2cccc(c2)-c2cccc(c2)C1=O (racemic) shows inhibition at 48 h, 10 µM of 30% or more.
Solution: 0.0

Exercise: Say whether CCCCCCNC(=O)CN1CCCCN(CC(=O)NC(C)(C)C)C(=O)c2cccc(c2)-c2cccc(c2)C1=O shows inhibition at 48 h, 10 µM of 30% or more.
Solution: 1.0

Exercise: Say whether CCCCCCCCCCCCNC(=O)C(c1ccoc1)N1CCCCN(CC(=O)NC(C)(C)C)C(=O)c2cccc(c2)-c2cccc(c2)C1=O (racemic) shows inhibition at 48 h, 10 µM of 30% or more.
Solution: 0.0

Exercise: Say whether CCCCCCCCCCCCNC(=O)C(c1ccccc1)N1CCCCN(CC(=O)NC(C)(C)C)C(=O)c2cccc(c2)-c2cccc(c2)C1=O (racemic) shows inhibition at 48 h, 10 µM of 30% or more.
Solution: 0.0

====

Activity values, listed per item
Test system: SK-LU-1
Assay Method Text: Antiproliferative activity against human SK-LU-1 cells assessed as inhibition of cell growth at 10 uM incubated for 48 hrs by SRB assay relative to control
Format: functional
Parameters: scale not given: the % may be the effect or the level left

Exercise: Endpoint output: Activity of CCCCCCCCCCCCNC(=O)C(c1ccco1)N1CCCCN(CC(=O)NC(C)(C)C)C(=O)c2cccc(c2)-c2cccc(c2)C1=O (racemic) . Value?
Solution: 34.9%

Exercise: Endpoint output: Activity of CCCCCCCCCCCCNC(=O)C(c1ccc(C(F)(F)F)cc1)N1CCCCN(CC(=O)NC(C)(C)C)C(=O)c2cccc(c2)-c2cccc(c2)C1=O (racemic) . Value?
Solution: 76.5%

Exercise: Endpoint output: Activity of CCCCCCNC(=O)CN1CCCCN(CC(=O)NC(C)(C)C)C(=O)c2cccc(c2)-c2cccc(c2)C1=O . Value?
Solution: 74.9%

Exercise: Endpoint output: Activity of CCCCCCCCCCCCNC(=O)C(c1ccc(O)cc1OC)N1CCCCN(CC(=O)NC(C)(C)C)C(=O)c2cccc(c2)-c2cccc(c2)C1=O (racemic) . Value?
Solution: 45.1%

====

Test system: HCT-15
Assay Method Text: Antiproliferative activity against human HCT-15 cells assessed as inhibition of cell growth at 10 uM incubated for 48 hrs by SRB assay relative to control
Type: functional
Set-up: scale not given: the % may be the effect or the level left
Could you please mark yes (1) for values of Activity below 30% and no (0) for values at or above it?

Past entries and their recorded results:
>>> label_class("CCCCCCCCNC(=O)CN1CCCCN(CC(=O)NC(C)(C)C)C(=O)c2cccc(c2)-c2cccc(c2)C1=O")
"yes (1)"
>>> label_class("CCCCCCCCCCNC(=O)CN1CCCCN(CC(=O)NC(C)(C)C)C(=O)c2cccc(c2)-c2cccc(c2)C1=O")
"no (0)"
>>> label_class("CCCCCCCCCCCCNC(=O)C(c1ccco1)N1CCCCN(CC(=O)NC(C)(C)C)C(=O)c2cccc(c2)-c2cccc(c2)C1=O (racemic)")
"yes (1)"
>>> label_class("CCCCCCCCCCCCNC(=O)C(c1cc(OC)c(OC)c(OC)c1)N1CCCCN(CC(=O)NC(C)(C)C)C(=O)c2cccc(c2)-c2cccc(c2)C1=O (racemic)")
"no (0)"

Now let's try a different one.
Exercise: Given the entry CCCCCCCCCCCCNC(=O)C(c1ccc(C)cc1)N1CCCCN(CC(=O)NC(C)(C)C)C(=O)c2cccc(c2)-c2cccc(c2)C1=O (racemic) , would its reported Activity be below 30%?
Solution: yes (1)
